Listed next: entries and their corresponding pIC50.
test system: KRAS G12V-dependent Ba/F3 cells; experiment: Ba/F3 proliferation assay, KRAS G12V; assay type: cell-based; conditions: Mus musculus, BaF3, 72 h, AlamarBlue
// pIC50: -log10(molar conc.)

COMPOUND: CO[C@H]1CCN(C)[C@@H]1[C@H](C)Oc1cc(-n2ccc(CC(=O)NC(C)C)n2)nc(-c2noc3c2CCC[C@@]32CCCc3sc(N)c(C#N)c32)n1 [II-183]
RESULT TYPE: pIC50
READOUT NUMBER: 8.52

COMPOUND: C[C@H](Oc1cc(N2CC[C@H](N(C)C)C2)nc(-c2onc3c2CCC[C@@]32CCCc3sc(N)c(C#N)c32)n1)[C@@H]1CCCN1C [I-11]
RESULT TYPE: pIC50
READOUT NUMBER: 6.38

COMPOUND: C[C@H](O)Cn1ccc(-c2cc(O[C@@H](C)[C@@H]3CCCN3C)nc(-c3noc4c3CCC[C@@]43CCCc4sc(N)c(C#N)c43)n2)n1 [II-112]
RESULT TYPE: pIC50
READOUT NUMBER: 8.22

COMPOUND: C[C@H](Oc1cc(N2CCC(C#N)C2)nc(-c2noc3c2CCC[C@@]32CCCc3sc(N)c(C#N)c32)n1)[C@@H]1CCCN1C (stereo partly drawn) [II-99]
RESULT TYPE: pIC50
READOUT NUMBER: 7.46

COMPOUND: C[C@H](Oc1cc(-n2ccc(C(=O)N[C@@H]3CCOC3)n2)nc(-c2onc3c2CCC[C@@]32CCCc3sc(N)c(C#N)c32)n1)[C@@H]1CCCN1C [I-56]
RESULT TYPE: pIC50
READOUT NUMBER: 8.40

Consider now this further compound.
Measured pIC50 of C[C@H](Oc1cc(N2CCN(C)C3(CC3)C2)nc(-c2onc3c2CCC[C@@]32CCCc3sc(N)c(C#N)c32)n1)[C@@H]1CCCN1C [I-41] : 6.35
